test system: GlyRα2; construct: gene GLRA2; subunit expressed individually (homopentamer by known biology); plasmid pNKS2(GlyRα2); cRNA-injected Xenopus laevis oocytes; test: two-electrode voltage clamp, agonist-induced current in oocytes; format: cell-based; details: read-out: Glycine Dose-Response Relationship / EC50, -50 mV, ND96 without Ca2+, pH 7.4, 21-23 °C
endpoint: EC50 (µM)
Form entry: value (µM) — number only.

// query What does the record list as EC50 for NCC(=O)O [glycine] ?
// result 325

###

system: GlyRα1; construct: gene GLRA1; homomeric receptor (pentamer by known biology); plasmid pNKS2(GlyRα1); cRNA-injected Xenopus laevis oocytes; test: two-electrode voltage clamp, agonist-induced current in oocytes; type: cell-based; settings: read-out: Glycine Dose-Response Relationship / EC50, -50 mV, ND96 without Ca2+, pH 7.4, 21-23 °C
endpoint: pEC50
In textbook form, pEC50 equals minus log to base ten of the concentration in mol/L.

// query What does the record list as pEC50 for NCC(=O)O ?
// result 3.79
